Item-by-item account of hERG current change (%, negative = inhibition) at 10uM
target: human ether-à-go-go-related gene (hERG) potassium channel (human, UniProt Q12809); experiment: primary screen, population patch clamp on CHO cells stably expressing hERG; higher = less effect of the substance;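 note: peak tail current of the secondary pulse compared with the same well before compound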
Sequence (Q12809 whole entry, looked up): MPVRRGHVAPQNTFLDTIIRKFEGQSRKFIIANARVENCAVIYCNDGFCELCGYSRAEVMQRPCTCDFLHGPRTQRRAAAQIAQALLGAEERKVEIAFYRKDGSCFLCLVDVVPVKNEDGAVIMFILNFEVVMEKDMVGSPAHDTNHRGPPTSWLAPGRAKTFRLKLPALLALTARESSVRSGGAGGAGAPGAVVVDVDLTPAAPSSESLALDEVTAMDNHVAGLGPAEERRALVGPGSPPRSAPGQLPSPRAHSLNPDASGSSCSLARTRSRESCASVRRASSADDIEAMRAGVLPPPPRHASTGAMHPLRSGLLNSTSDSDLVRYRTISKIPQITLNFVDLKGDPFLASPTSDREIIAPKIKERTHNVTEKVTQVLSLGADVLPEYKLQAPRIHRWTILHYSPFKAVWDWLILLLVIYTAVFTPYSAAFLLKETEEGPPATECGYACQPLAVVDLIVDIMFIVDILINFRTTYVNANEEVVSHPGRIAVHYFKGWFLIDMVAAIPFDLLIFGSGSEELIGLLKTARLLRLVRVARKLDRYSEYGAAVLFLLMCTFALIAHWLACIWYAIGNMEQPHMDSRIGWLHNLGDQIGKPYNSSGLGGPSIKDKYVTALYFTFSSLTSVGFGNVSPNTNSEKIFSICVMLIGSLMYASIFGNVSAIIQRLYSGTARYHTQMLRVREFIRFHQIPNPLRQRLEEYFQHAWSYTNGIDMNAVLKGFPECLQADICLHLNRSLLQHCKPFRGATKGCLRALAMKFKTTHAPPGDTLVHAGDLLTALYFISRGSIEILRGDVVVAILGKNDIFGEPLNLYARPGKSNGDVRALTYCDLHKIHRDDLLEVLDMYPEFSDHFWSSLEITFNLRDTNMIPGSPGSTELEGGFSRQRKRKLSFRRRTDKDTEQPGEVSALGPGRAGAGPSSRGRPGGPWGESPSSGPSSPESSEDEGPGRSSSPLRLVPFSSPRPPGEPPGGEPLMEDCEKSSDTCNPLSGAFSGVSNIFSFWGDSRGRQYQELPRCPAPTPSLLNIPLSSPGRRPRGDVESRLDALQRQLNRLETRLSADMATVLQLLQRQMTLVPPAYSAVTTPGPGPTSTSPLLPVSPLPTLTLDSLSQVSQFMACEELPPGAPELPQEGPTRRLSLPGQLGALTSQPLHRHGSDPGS
In all, about 310,000 compounds went through this assay and about 14,000 (4.5%) showed an effect of 50% or more. The effect is printed as a negative number. The sample as a whole holds a higher share of strong results than the screen did.
Quick reminder: number only, in %, skip the unit.

What does the record list as hERG current change (%, negative = inhibition) at 10uM for CCOc1cc(/C=C\[N+](=O)[O-])ccc1OCC(=O)N1CCOCC1 ?
-50.5

Same question, CCOc1cc(C=C2C(=O)NC(=O)NC2=O)ccc1OCC(=O)N1CCOCC1 this time
7.28

Same question, O=c1c(Cc2c(F)cccc2Cl)c(O)ccn1C1CC1 this time
-11.7

Same question, CCCOc1cccc(C(=O)Nc2cccc(NC(=O)c3ccco3)c2)c1 this time
-21.8

Same question, COc1cc(C(C)=O)ccc1OCC(=O)Nc1ccc2nc(C)sc2c1 this time
13.4

Continuing:
What does the record list as hERG current change (%, negative = inhibition) at 10uM for Nc1ccc(-c2cnc[nH]2)cc1[N+](=O)[O-] ?
-0.302

Same question, COc1cccc(C(=O)Nc2cc(NC(=O)c3ccco3)ccc2OC)c1 this time
-5.19

Same question, COc1ccc(NC(=O)c2ccco2)cc1NC(=O)c1cccc(OC(C)C)c1 this time
-96.7

Same question, COCCOC(=O)c1c(NC(=O)COC(=O)c2ccc(C)o2)sc(C(N)=O)c1C this time
-10.9

Same question, CCc1ccc(NC(=O)CC2C(=O)NCCN2C(=O)c2ccc(F)cc2)cc1 (stereo not shown) this time
-55.4

====

target: human ether-à-go-go-related gene (hERG) potassium channel (human); experiment: primary screen, population patch clamp on CHO cells stably expressing hERG; higher = less effect of the substance;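 note: peak tail current of the secondary pulse compared with the same well before compound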
Screen size: about 310,000 compounds; about 14,000 (4.5%) showed an effect of 50% or more. Effects have a minus sign here. Many of the other results were omitted from the sample, so strong results are more common in it than they were.
Metric: hERG current change (%, negative = inhibition) at 10uM (%)
Quick reminder: number only, in %, skip the unit.

What does the record list as hERG current change (%, negative = inhibition) at 10uM for CN(C(=O)c1cccc(NC(=O)c2ccco2)c1)c1ccccc1 ?
13.3

Same question, CC(=O)Nc1cccc(NC(=O)c2ccco2)c1 this time
-4.69

Same question, Cc1ccc(NC(=O)c2ccc(Br)o2)cc1S(=O)(=O)N(C)C this time
-54.7

Same question, Cc1ccc(NC(=O)c2ccccc2Br)cc1S(=O)(=O)N(C)C this time
-1.84

Same question, CN(C)S(=O)(=O)c1ccc(NC(=O)c2ccc(Br)o2)cc1 this time
-9.84

====

biological target: human ether-à-go-go-related gene (hERG) potassium channel (human, UniProt Q12809); experiment: primary screen, population patch clamp on CHO cells stably expressing hERG; higher = less effect of the substance;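 note: peak tail current of the secondary pulse compared with the same well before compound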
Out of some 310,000 compounds screened, about 14,000 (4.5%) showed an effect of 50% or more. The effect is printed as a negative number. For the sample, strong results were picked, then their nearest neighbours and some compounds at random.
Label Criterion met when hERG current change (%, negative = inhibition) at 10uM >= -20%; otherwise Criterion not met.

Solved entries (count: 5):
Hi, just wondering whether COc1ccc(S(=O)(=O)Cc2ccc(C(=O)N3CCN(Cc4ccccc4)CC3)o2)cc1 shows hERG current change (%, negative = inhibition) at 10uM of -20% or higher.
Criterion not met

Same question, CC(C)OCC(O)CN1CCN(C(c2ccccc2)c2ccccc2)CC1.Cl (stereo not shown) this time
Criterion not met

Same question, COC(=O)CN1CCN(C(c2ccccc2)c2ccccc2)CC1 this time
Criterion met

Same question, CCC(=O)c1ccc(OCC(O)CN2CCOCC2)cc1 (stereo not shown) this time
Criterion met

Same question, Cc1ccc(S(=O)(=O)Cc2ccc(C(=O)N3CCCCCC3)o2)cc1 this time
Criterion met

Continuing:
Hi, just wondering whether Cc1cc(C)c(N=C2SCC(=O)N2Cc2ccco2)c(C)c1 shows hERG current change (%, negative = inhibition) at 10uM of -20% or higher.
Criterion met

Same question, CN1CCN(CC(O)COc2ccccc2)CC1 (stereo not shown) this time
Criterion met

Same question, OC(COc1ccccc1)CN1CCCC1 (stereo not shown) this time
Criterion met

Same question, COC(=O)c1ccc(C2c3c(oc4ccc(Cl)cc4c3=O)C(=O)N2CCN2CCOCC2)cc1 (stereo not shown) this time
Criterion not met

Same question, Cc1ccc(S(=O)(=O)Cc2ccc(C(=O)N3CCc4ccccc4C3)o2)cc1 this time
Criterion not met
